Please go through the items and note down their IC50.
TARGET_DESC: full-length beta-Catenin (Uniprot ID P35222) (Homo sapiens)
Construct: 10 nM full-length beta-Catenin (Uniprot ID P35222)
PROTOCOL_DETAILS: Fluorescence polarization IC50 (beta-catenin / 5FAM-TCF4 10-53 competition)
Assay type: binding
CONDITIONS_USED: fluorescence polarization; read-out: beta-Catenin FP IC50
The figure you give is taken to be in nM; do not add the unit.

Input line: Under full-length beta-Catenin (Uniprot ID P35222) (Homo sapiens), report IC50 for CC(=O)N1CCC[C@]12CC=CCCCC1(CCCC=CCCCOC(=O)N3CC[C@@](C(=O)N[C@@H](Cc4c(F)c(F)c(F)c(F)c4F)C(=O)N[C@@H](Cc4csc5ccccc45)C(=O)N[C@@H](CO)C(N)=O)(C3)NC(=O)[C@H]([C@@H](C)O)NC(=O)[C@H](Cc3ccccc3)NC(=O)[C@H](C)NC(=O)[C@H](C)NC(=O)[C@H](CC(=O)O)NC(=O)[C@H](CC(=O)O)NC1=O)NC(=O)[C@H](CC1CCCCC1)NC(=O)[C@H](CC(=O)O)NC2=O (some centres unmarked)
Output line: 80.5

Input line: Under full-length beta-Catenin (Uniprot ID P35222) (Homo sapiens), report IC50 for CC(C)C[C@H](NC(=O)[C@]12CCN(C1)C(=O)OCCCCCCCCC1(CCCCCCCCC(=O)N3CCC[C@@]3(C)C(=O)N[C@@H](CC(=O)O)C(=O)N1)C(=O)N[C@@H](C)C(=O)N[C@@H](CC(=O)O)C(=O)N[C@@H](Cc1cccc(C(=O)O)c1)C(=O)N[C@@H](C)C(=O)N[C@@H](C)C(=O)N[C@@H](Cc1ccccc1)C(=O)N2)C(=O)N[C@@H](Cc1ccsc1)C(=O)N[C@@H](Cc1csc2ccccc12)C(=O)N[C@@H](CCC(N)=O)C(N)=O (some centres unmarked)
Output line: 1120

* * *

TARGET_DESC: full-length beta-Catenin (Uniprot ID P35222) (Homo sapiens, UniProt P35222)
Construct: 10 nM full-length beta-Catenin (Uniprot ID P35222)
Sequence (P35222 whole entry): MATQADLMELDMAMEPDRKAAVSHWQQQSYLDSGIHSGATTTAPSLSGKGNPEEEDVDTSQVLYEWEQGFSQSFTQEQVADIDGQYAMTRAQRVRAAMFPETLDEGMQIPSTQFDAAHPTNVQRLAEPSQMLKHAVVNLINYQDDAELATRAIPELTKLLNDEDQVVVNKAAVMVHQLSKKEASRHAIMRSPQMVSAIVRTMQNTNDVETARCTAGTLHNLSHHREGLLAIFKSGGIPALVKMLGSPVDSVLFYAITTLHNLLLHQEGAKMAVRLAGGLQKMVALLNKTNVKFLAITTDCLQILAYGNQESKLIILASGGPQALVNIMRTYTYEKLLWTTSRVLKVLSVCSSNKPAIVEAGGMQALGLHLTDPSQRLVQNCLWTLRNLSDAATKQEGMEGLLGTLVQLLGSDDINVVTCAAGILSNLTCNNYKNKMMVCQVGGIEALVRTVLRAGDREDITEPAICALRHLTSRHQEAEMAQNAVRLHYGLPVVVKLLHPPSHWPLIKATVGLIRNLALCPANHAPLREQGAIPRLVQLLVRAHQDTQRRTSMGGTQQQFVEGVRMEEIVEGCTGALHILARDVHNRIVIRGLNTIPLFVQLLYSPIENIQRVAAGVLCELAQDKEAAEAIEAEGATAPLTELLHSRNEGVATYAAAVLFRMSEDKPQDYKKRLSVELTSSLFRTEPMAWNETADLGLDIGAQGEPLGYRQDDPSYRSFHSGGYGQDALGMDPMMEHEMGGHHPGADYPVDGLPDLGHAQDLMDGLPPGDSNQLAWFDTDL
PROTOCOL_DETAILS: Fluorescence polarization IC50 (beta-catenin / 5FAM-TCF4 10-53 competition)
Assay type: binding
CONDITIONS_USED: fluorescence polarization; read-out: beta-Catenin FP IC50
PROPERTY_LABEL: IC50

Input line: Tell me IC50 reported for CC[C@@H]1NC(=O)[C@H](CC(=O)O)NC(=O)[C@]2(CC=CCCCC3(CCCC=CCCCCCC[C@@](C)(C(=O)N[C@@H](Cc4ccccc4)C(=O)N[C@@H](Cc4csc5ccccc45)C(=O)N[C@@H](Cc4c[nH]cn4)C(N)=O)NC(=O)[C@H](CCC(N)=O)NC(=O)[C@H](Cc4ccccc4)NC(=O)[C@H](C)NC(=O)[C@H](C)NC(=O)[C@H](CCC(=O)O)NC(=O)[C@H](CC(=O)O)NC3=O)NC1=O)CCCN2C(C)=O (some centres unmarked) [I-571]
Output line: 32 nM

Input line: Tell me IC50 reported for CC(=O)N1CCC[C@]12CC=CCCCC1(CCCC=CCCCCCC[C@@](C)(C(=O)N[C@@H](Cc3ccccc3)C(=O)N[C@@H](Cc3csc4ccccc34)C(N)=O)NC(=O)[C@H](CC(N)=O)NC(=O)[C@H](Cc3ccccc3)NC(=O)[C@H](C)NC(=O)[C@H](C)NC(=O)[C@H](CCC(=O)O)NC(=O)[C@H](CC(=O)O)NC1=O)NC(=O)[C@H](CC1CCCCC1)NC(=O)[C@H](CC(=O)O)NC2=O (some centres unmarked)
Output line: 338 nM
